// data source = ChEMBL document CHEMBL6177998

target-or-system: Protein cereblon/Eukaryotic peptide chain release factor GTP-binding subunit ERF3A (Homo sapiens, UniProt Q96SW2+P15170)
Sequence (P15170 whole entry, looked up): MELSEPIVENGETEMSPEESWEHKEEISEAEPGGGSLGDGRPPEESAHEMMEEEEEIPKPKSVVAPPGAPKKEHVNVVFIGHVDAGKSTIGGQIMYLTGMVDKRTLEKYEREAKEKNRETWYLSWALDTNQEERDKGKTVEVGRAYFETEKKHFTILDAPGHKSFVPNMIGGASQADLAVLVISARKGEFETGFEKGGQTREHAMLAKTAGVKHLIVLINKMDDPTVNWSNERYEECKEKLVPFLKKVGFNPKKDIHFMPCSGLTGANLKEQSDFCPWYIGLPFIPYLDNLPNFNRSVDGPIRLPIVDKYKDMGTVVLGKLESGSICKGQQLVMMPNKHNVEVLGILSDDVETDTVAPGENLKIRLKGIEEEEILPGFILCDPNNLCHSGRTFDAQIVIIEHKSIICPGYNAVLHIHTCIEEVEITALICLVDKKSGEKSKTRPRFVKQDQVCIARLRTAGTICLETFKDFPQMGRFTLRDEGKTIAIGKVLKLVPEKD
Sequence (Q96SW2 whole entry, looked up): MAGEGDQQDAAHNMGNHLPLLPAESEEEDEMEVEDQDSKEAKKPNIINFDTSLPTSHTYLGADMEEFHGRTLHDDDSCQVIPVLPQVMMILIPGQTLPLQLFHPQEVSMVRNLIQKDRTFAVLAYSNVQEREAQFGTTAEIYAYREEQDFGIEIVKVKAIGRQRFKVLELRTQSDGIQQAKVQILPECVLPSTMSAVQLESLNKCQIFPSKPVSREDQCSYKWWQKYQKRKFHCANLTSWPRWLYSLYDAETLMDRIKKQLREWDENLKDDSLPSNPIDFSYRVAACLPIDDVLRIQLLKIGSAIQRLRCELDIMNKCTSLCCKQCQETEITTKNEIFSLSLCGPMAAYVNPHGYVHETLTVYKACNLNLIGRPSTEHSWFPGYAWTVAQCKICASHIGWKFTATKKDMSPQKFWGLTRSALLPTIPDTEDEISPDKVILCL
assay-name: Molecular glue activity at CRBN/GSPT1 in human 22Rv1 cells assessed as induction of GSPT1 degradation at 5 uM incubated for 24 hrs by Western blot analysis relative to control
Format: cell-based
Provide the reported Activity of each item.
Answer format: value, then unit.

Item: CC(C)(c1ccc(OCC2CCN(C(=O)CCCCNc3cccc4c3C(=O)N(C3CCC(=O)NC3=O)C4=O)CC2)cc1)c1ccc(OC[C@H](O)CCl)cc1 (stereo partly drawn) | Activity: 47.1%

Item: CC(C)(c1ccc(OCC2CCN(C(=O)CCCCCNc3cccc4c3C(=O)N(C3CCC(=O)NC3=O)C4=O)CC2)cc1)c1ccc(OC[C@H](O)CCl)cc1 (stereo partly drawn) | Activity: 68.9%

Item: CC(C)(c1ccc(OCC2CCN(C3CN(C(=O)CNc4ccc5c(c4)C(=O)N(C4CCC(=O)NC4=O)C5=O)C3)CC2)cc1)c1ccc(OC[C@H](O)CCl)cc1 (stereo partly drawn) | Activity: 60.9%

Item: CC(C)(c1ccc(OCC2CCN(C(=O)CCCCCCCNc3cccc4c3C(=O)N(C3CCC(=O)NC3=O)C4=O)CC2)cc1)c1ccc(OC[C@H](O)CCl)cc1 (stereo partly drawn) | Activity: 45.8%

Item: CC(C)(c1ccc(OCC2CCN(C3CN(C(=O)CCCCNc4ccc5c(c4)C(=O)N(C4CCC(=O)NC4=O)C5=O)C3)CC2)cc1)c1ccc(OC[C@H](O)CCl)cc1 (stereo partly drawn) | Activity: 41.2%

Item: CC(C)(c1ccc(OCC2CCN(C3CN(C(=O)CCCNc4ccc5c(c4)C(=O)N(C4CCC(=O)NC4=O)C5=O)C3)CC2)cc1)c1ccc(OC[C@H](O)CCl)cc1 (stereo partly drawn) | Activity: 76.7%

Item: CC(C)(c1ccc(OCC2CCN(C(=O)CCCCCCCNc3ccc4c(c3)C(=O)N(C3CCC(=O)NC3=O)C4=O)CC2)cc1)c1ccc(OC[C@H](O)CCl)cc1 (stereo partly drawn) | Activity: 42%

Item: CC(C)(c1ccc(OCC2CCN(C(=O)CCCCCNc3ccc4c(c3)C(=O)N(C3CCC(=O)NC3=O)C4=O)CC2)cc1)c1ccc(OC[C@H](O)CCl)cc1 (stereo partly drawn) | Activity: 95.1%

* * *

target-or-system: Protein cereblon/Androgen receptor (Homo sapiens, UniProt P10275+Q96SW2)
Sequence (P10275 whole entry, looked up): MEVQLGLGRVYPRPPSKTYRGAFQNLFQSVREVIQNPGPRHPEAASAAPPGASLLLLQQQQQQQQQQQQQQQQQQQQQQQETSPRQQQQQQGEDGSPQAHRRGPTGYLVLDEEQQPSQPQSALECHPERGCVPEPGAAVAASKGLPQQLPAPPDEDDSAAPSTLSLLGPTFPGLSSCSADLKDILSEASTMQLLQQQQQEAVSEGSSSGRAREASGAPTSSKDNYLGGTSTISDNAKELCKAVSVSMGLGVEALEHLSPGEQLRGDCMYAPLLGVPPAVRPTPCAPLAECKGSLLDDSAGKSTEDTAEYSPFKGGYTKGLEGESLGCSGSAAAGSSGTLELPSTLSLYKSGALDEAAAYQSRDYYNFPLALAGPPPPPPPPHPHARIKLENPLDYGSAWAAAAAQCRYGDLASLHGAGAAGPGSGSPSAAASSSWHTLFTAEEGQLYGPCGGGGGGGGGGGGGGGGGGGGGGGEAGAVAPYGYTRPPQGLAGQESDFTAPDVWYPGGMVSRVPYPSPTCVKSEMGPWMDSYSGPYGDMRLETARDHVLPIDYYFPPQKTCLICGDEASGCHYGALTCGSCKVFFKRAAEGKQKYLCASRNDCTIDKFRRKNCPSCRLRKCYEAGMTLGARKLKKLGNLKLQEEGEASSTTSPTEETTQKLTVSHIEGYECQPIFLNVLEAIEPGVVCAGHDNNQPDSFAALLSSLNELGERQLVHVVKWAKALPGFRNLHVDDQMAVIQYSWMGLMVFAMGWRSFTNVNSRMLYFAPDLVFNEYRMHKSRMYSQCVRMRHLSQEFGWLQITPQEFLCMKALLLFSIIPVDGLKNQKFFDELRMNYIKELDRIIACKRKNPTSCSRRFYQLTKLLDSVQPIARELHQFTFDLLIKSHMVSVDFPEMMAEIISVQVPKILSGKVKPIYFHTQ
Sequence (Q96SW2 whole entry, looked up): as the sequence (Q96SW2 whole entry, looked up) above
assay-name: PROTAC activity at CRBN/AR in human VCaP cells assessed as induction of AR degradation at 0.1 uM incubated for 24 hrs by Western blot analysis relative to control
Type: cell-based
Provide the reported Activity of each item.
Please state the figure in %; there is no need to write the unit.

Item: CC(C)(c1ccc(OCC2COC2)cc1)c1cc(Cl)c(OCC2CCN(C(=O)CCCCCNc3ccc4c(c3)C(=O)N(C3CCC(=O)NC3=O)C4=O)CC2)c(C#N)c1 (configuration not stated) | Activity: 81.2

Item: CC(C)(c1ccc(OCC2CCOCC2)cc1)c1cc(Cl)c(OCC2CCN(C(=O)CCCCCNc3ccc4c(c3)C(=O)N(C3CCC(=O)NC3=O)C4=O)CC2)c(C#N)c1 (configuration not stated) | Activity: 63

Item: CC(C)(c1ccc(OCc2cncnc2)cc1)c1cc(Cl)c(OCC2CCN(C(=O)CCCCCNc3ccc4c(c3)C(=O)N(C3CCC(=O)NC3=O)C4=O)CC2)c(C#N)c1 (configuration not stated) | Activity: 74.7

Item: COc1ccc(C(C)(C)c2cc(Cl)c(OCC3CCN(C(=O)CCCCCNc4cc5c(cc4F)C(=O)N(C4CCC(=O)NC4=O)C5=O)CC3)c(C#N)c2)cc1 (configuration not stated) | Activity: 17.3

Item: CC1(COc2ccc(C(C)(C)c3cc(Cl)c(OCC4CCN(C(=O)CCCCCNc5ccc6c(c5)C(=O)N(C5CCC(=O)NC5=O)C6=O)CC4)c(C#N)c3)cc2)COC1 (configuration not stated) | Activity: 78.1

Item: CC(C)(c1ccc(OCc2ccncn2)cc1)c1cc(Cl)c(OCC2CCN(C(=O)CCCCCNc3ccc4c(c3)C(=O)N(C3CCC(=O)NC3=O)C4=O)CC2)c(C#N)c1 (configuration not stated) | Activity: 58.8

Item: CC(C)(c1ccc(OCc2ccccc2)cc1)c1cc(Cl)c(OCC2CCN(C(=O)CCCCCNc3ccc4c(c3)C(=O)N(C3CCC(=O)NC3=O)C4=O)CC2)c(C#N)c1 (configuration not stated) | Activity: 21.7

Item: COc1ccc(C(C)(C)c2ccc(OCC3CCN(C(=O)CCCCCNc4ccc5c(c4)C(=O)N(C4CCC(=O)NC4=O)C5=O)CC3)cc2)cc1 (configuration not stated) | Activity: 83.9

Item: CC(C)(c1ccc(OCC2CCN(S(C)(=O)=O)CC2)cc1)c1cc(Cl)c(OCC2CCN(C(=O)CCCCCNc3ccc4c(c3)C(=O)N(C3CCC(=O)NC3=O)C4=O)CC2)c(C#N)c1 (configuration not stated) | Activity: 34.5

Item: COc1ccc(C(C)(C)c2cc(Cl)c(OCC3CCN(C(=O)CCCCCNc4ccc5c(c4)C(=O)N(C4CCC(=O)NC4=O)C5=O)CC3)c(C#N)c2)cc1 (configuration not stated) | Activity: 92.2
